# Test system: P. aeruginosa clinical isolate
# experimentalProtocol: MIC determination, broth microdilution
# Type: cell-based
# cond: Pseudomonas aeruginosa, 37° C., 18-24 hours, read-out: Strain 9 MIC
Entries and their MIC values follow.
Respond with the bare value in µg/mL.

inputsmiles=CC1(C)[C@H](NC(=O)/C(=N\O[C@@H](COc2ccc(C(=N)N[C@H]3CCNC3)cc2)C(=O)O)c2nc(N)sc2Cl)C(=O)N1OS(=O)(=O)O numericvalue=1

Task: Value lookup for MIC; key = CC1(C)[C@H](NC(=O)/C(=N\O[C@@H](COc2ccc(C(=N)N[C@@H]3CCNC3)cc2)C(=O)O)c2nsc(N)n2)C(=O)N1OS(=O)(=O)O
Result: 2

Task: Value lookup for MIC; key = CC1(C)[C@H](NC(=O)/C(=N\O[C@@H](COc2ccc(C(=N)N[C@H]3CCCNC3)cc2)C(=O)O)c2nc(N)sc2Cl)C(=O)N1OS(=O)(=O)O
Result: 4

Task: Value lookup for MIC; key = C[C@H]1[C@H](NC(=O)/C(=N\O[C@@H](COc2ccc(C(=N)N[C@H]3CCCNC3)cc2)C(=O)O)c2nc(N)sc2Cl)C(=O)N1S(=O)(=O)O
Result: 16

Values from patent US20230295149A1
